tested_on: SARS-CoV-2 NSP3 ADRP domain (SARS-CoV-2, UniProt P0DTD1 1023-1192)
experiment_description: fluorescence polarisation
test_parameters: both partners purified
readout: IC50 (µM)
Give just the numeric value; µM need not be written.

Q: Return value of IC50 for input STYLHPLSELLGIPLD [MBOAT1 wt peptide 17-32] , no commentary.
Result: 175
